Biological target: murine E^d MHC class II allele (Mus musculus, UniProt P01904+P01915)
Sequence (P01904 26-255): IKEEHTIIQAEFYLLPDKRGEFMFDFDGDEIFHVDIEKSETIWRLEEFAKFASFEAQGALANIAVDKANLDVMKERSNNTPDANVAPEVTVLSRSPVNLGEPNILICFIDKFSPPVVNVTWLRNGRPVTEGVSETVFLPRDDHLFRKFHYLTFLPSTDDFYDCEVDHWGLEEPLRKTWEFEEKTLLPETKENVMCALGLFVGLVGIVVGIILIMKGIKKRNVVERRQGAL
Sequence (P01915 27-264 limits assumed): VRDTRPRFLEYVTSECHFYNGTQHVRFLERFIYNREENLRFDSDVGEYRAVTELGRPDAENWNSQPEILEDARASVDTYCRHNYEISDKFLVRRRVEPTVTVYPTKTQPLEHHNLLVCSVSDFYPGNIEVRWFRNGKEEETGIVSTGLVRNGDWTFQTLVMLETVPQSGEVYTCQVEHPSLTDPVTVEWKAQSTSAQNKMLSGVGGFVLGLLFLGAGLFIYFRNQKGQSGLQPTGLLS
Assay: simultaneous assay, E^d allele (A20 APC, G28.C9 T hybridoma, HEL106-116; HT-2 [3H]TdR readout)
Assay type: cell-based
Parameters: The A20 and CH27 B cell lymphoma lines express H-2^d and H-2^k alleles, respectively; endogenous in cells; host or cells: A20 B cell lymphoma (mitomycin C-treated or paraformaldehyde-fixed)
Conditions: Table 16; AE peptide 4 μM; supernatant 1:8
Non-standard residues stand in square brackets, D forms with d. Cit = NC(=O)NCCC[C@H](N)C(=O)O
readout-label: Times Baseline Response, E^d
Lab note: record just the number, no unit beside it.

Ac-LRMK Y PK-NH2 (Ac-LRMKYPK-NH2; not fully specified; printed as Ac-LRMK Y PK-NH2) [AE235] : 14.3
Ac-LRM M LPK-NH2 (Ac-LRMMLPK-NH2) [AE220] : 12.0
Ac-LRLKWPK-NH2 [AE309] : 20.0
Ac-Y K MKLPKSAK-NH2 [AE134] : 1.2
Ac-LRMMYP[Cit]-NH2 [AE367] : 1.0

Entry Ac-LKMKYPK-NH2 [AE362] : reported Times Baseline Response, E^d = ?
1.2

Entry Ac-LRMKYPN-NH2 [AE370] : reported Times Baseline Response, E^d = ?
8.7

Entry Ac-LR L KLPK-NH2 (Ac-LRLKLPK-NH2; not fully specified; printed as Ac-LR L KLPK-NH2) [AE206] : reported Times Baseline Response, E^d = ?
15.5

Entry Ac-LRMKLPK-NH2 [AE114] : reported Times Baseline Response, E^d = ?
15.7

Entry Ac-LRMKLP N-NH2 (Ac-LRMKLPN-NH2) [AE246] : reported Times Baseline Response, E^d = ?
21.8

Entry Ac-LRLKYPN-NH2 [AE368] : reported Times Baseline Response, E^d = ?
9.4

Entry Ac-LRLKYPK-NH2 [AE301] : reported Times Baseline Response, E^d = ?
20.1

====

Target: murine E^d MHC class II allele (Mus musculus, UniProt P01904+P01915)
Sequence (P01904 26-255): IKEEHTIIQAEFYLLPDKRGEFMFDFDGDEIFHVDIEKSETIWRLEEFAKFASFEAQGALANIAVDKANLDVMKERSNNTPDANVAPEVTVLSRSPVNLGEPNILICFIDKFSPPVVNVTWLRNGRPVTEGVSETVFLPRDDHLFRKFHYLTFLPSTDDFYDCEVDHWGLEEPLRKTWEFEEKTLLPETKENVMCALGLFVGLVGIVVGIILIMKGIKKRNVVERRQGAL
Sequence (P01915 27-264 limits assumed): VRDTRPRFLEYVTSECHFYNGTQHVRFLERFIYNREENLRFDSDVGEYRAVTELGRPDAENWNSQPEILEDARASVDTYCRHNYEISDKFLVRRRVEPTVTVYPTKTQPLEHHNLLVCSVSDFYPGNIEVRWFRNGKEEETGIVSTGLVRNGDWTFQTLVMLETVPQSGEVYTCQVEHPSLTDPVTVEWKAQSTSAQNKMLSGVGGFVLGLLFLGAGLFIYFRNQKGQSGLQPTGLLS
Test: simultaneous assay, E^d allele (A20 APC, G28.C9 T hybridoma, HEL106-116; HT-2 [3H]TdR readout)
Type: cell-based
Set-up: The A20 and CH27 B cell lymphoma lines express H-2^d and H-2^k alleles, respectively; endogenous in cells; host or cells: A20 B cell lymphoma (mitomycin C-treated or paraformaldehyde-fixed)
Conditions: Table 4; AE109 homolog 64 μM; supernatant 1:2
readout-label: Times Baseline Response, E^d
Lab note: record just the number, no unit beside it.

Answered cases to consult:
Ac-Y E MKLPKSAK-NH2 [AE136] : 0.9
Ac-YRMKLPKSAK-NH2 [AE109] : 3.3
Ac-Y D MKLPKSAK-NH2 [AE135] : 1.2
Ac-Y F MKLPKSAK-NH2 [AE139] : 0.8
Ac-Y L MKLPKSAK-NH2 [AE142] : 0.8

Entry Ac-Y N MKLPKSAK-NH2 [AE137] : reported Times Baseline Response, E^d = ?
0.8

Entry Ac-Y Q MKLPKSAK-NH2 [AE138] : reported Times Baseline Response, E^d = ?
0.7

====

Molecular target: murine E^d MHC class II allele (Mus musculus, UniProt P01904+P01915)
Sequence (P01904 26-255): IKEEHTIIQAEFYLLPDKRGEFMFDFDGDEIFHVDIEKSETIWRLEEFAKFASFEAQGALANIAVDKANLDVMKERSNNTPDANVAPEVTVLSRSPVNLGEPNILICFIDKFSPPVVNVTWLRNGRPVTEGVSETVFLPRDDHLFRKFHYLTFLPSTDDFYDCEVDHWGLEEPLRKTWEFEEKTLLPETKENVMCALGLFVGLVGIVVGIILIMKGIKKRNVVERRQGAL
Sequence (P01915 27-264 limits assumed): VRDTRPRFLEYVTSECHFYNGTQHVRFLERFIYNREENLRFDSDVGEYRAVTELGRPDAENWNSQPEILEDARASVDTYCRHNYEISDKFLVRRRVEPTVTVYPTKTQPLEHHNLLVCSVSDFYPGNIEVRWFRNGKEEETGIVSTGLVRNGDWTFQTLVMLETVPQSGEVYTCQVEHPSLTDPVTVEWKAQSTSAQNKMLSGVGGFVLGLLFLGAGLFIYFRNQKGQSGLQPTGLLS
Experiment: antigenic peptide prepulse assay, E^d allele (fixed APC prepulsed with HEL106-116)
Assay type: cell-based
Parameters: The A20 and CH27 B cell lymphoma lines express H-2^d and H-2^k alleles, respectively; endogenous in cells; host or cells: A20 B cell lymphoma (mitomycin C-treated or paraformaldehyde-fixed)
Details: Table 26; AE peptide 64 μM; prepulse 24 μM antigenic peptide; supernatant 1:2
Non-standard residues stand in square brackets, D forms with d. Cit = NC(=O)NCCC[C@H](N)C(=O)O
readout-label: Activity in antigenic peptide prepulse assay, E^d (baseline = 1.0)
Lab note: record just the number, no unit beside it.

Answered cases to consult:
Ac-LRMK Y PK-NH2 (Ac-LRMKYPK-NH2; not fully specified; printed as Ac-LRMK Y PK-NH2) [AE235] : 0.23
Ac-LRM M LPK-NH2 (Ac-LRMMLPK-NH2) [AE220] : 0.73

Entry Ac-Y K MKLPKSAK-NH2 [AE134] : reported Activity in antigenic peptide prepulse assay, E^d (baseline = 1.0) = ?
0.83

Entry Ac-LRLKWPK-NH2 [AE309] : reported Activity in antigenic peptide prepulse assay, E^d (baseline = 1.0) = ?
0.25

Entry Ac-LR L KLPK-NH2 (Ac-LRLKLPK-NH2; not fully specified; printed as Ac-LR L KLPK-NH2) [AE206] : reported Activity in antigenic peptide prepulse assay, E^d (baseline = 1.0) = ?
0.38

Entry Ac-LRLKYPN-NH2 [AE368] : reported Activity in antigenic peptide prepulse assay, E^d (baseline = 1.0) = ?
0.55

Entry Ac-LRMMYP[Cit]-NH2 [AE367] : reported Activity in antigenic peptide prepulse assay, E^d (baseline = 1.0) = ?
1.10

Entry Ac-LRLKYPK-NH2 [AE301] : reported Activity in antigenic peptide prepulse assay, E^d (baseline = 1.0) = ?
0.34

====

Below, each entry is listed alongside its reported Times Baseline Response, E^k.
tested on: murine E^k MHC class II allele; assay: simultaneous assay, E^k allele (CH27 APC, TPc9.1 T hybridoma, THMCC82-103 or PGCC81-104); assay type: cell-based; conditions: Table 18; AE peptide 64 μM; supernatant 1:4
Positions of bridges follow the written chain, without caps; N, C: chain ends. No end group written: not given here.
Lab note: record just the number, no unit beside it.

Answered cases to consult:
cyclic LRMKLPK (bridge (positions not given here); also: cyclic, ring type not given here) [AE381, “head-to-tail” cyclization from the amino-terminus to the carboxyl-terminus of AE114] : 0.56
Ac-LRMKLPK (lactam 4-C) [AE382] : 18.1
Ac-LRMK Y PK-NH2 (Ac-LRMKYPK-NH2; not fully specified; printed as Ac-LRMK Y PK-NH2) [AE235] : 56.6

Please examine the following record next.
Entry Ac-LRMKLPK-NH2 [AE114] : reported Times Baseline Response, E^k = ?
40.3
